Target: UniProt P21452
Assay: Displacement of [3H]NKA from the cloned human Tachykinin receptor 2 which has been expressed in baculovirus infected insect sf21 cells
readout: Ki (nM)
Numbers only, in nM.

Example entries and their recorded answers appear below.
>  <smiles repr>
CC(C)c1nc2[nH]c(NCCCN)nc(Nc3ccc(Cl)cc3)c-2n1

>  <measured value>
2550

$$$$
>  <smiles repr>
CC(C)c1nc2nc(N3CCC(O)(c4ccccc4)CC3)nc(Nc3ccc(Cl)cc3)c2[nH]1

>  <measured value>
2240

$$$$
>  <smiles repr>
CC(C)c1nc2[nH]c(NCc3ccccc3)nc(Nc3ccc(Cl)cc3)c-2n1

>  <measured value>
5580

$$$$
>  <smiles repr>
CC(C)c1nc2nc(N3CCOCC3)nc(Nc3ccc(C(F)(F)F)cc3)c2[nH]1

>  <measured value>
2850

$$$$

--- query ---
Requested field: Ki. Item: CCCNc1nc(Nc2ccc(Cl)cc2)c2[nH]c(C(C)C)nc2n1 3490

---

Target: Substance-K receptor (Homo sapiens)
Assay: Inhibition constant for displacement of [3H]NKA from the cloned human NK2 receptor
Answer each item with its documented pKi.
Numbers only, as −log10 of the molar value.

>  <smiles repr>
CCCc1nc2nc(N3CCOCC3)nc(Nc3ccc(Cl)cc3)c2[nH]1

>  <pKi>
5.63

$$$$

Kindly give each listed record's pKi.
1. CCc1nc2nc(N3CCOCC3)nc(Nc3ccc(Cl)cc3)c2[nH]1
2. Cc1nc2[nH]c(N3CCOCC3)nc(Nc3ccc(Cl)cc3)c-2n1
3. CC(C)N1Cc2c(Nc3ccc(Cl)cc3)nc(N3CCOCC3)nc2C1=O

1. 5.16
2. 4.76
3. 6.26

---

Target: Substance-K receptor (Homo sapiens, UniProt P21452)
Sequence (P21452 whole entry): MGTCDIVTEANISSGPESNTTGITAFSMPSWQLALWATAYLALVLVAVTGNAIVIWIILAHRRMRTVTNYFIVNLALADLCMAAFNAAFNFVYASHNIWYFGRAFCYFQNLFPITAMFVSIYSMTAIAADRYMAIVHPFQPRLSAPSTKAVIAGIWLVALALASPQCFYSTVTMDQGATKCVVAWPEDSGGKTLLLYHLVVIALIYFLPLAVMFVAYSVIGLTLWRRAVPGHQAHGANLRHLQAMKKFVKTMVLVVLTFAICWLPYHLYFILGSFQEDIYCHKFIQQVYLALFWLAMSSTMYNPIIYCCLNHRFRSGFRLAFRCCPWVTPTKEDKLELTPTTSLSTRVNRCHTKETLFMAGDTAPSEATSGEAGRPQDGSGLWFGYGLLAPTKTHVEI
Assay: Displacement of [3H]NKA from the cloned human Tachykinin receptor 2 which has been expressed in baculovirus infected insect sf21 cells
We label by threshold. Values of Ki strictly beneath 4 µM are YES. Values of 4 µM and up are NO.

Study these solved cases before continuing.
>  <smiles repr>
CC(C)c1nc2[nH]c(N3CCC(=O)CC3)nc(Nc3ccc(Cl)cc3)c-2n1

>  <system name>
Substance-K receptor (Homo sapiens, UniProt P21452)

>  <class label>
NO

$$$$
>  <smiles repr>
CC(C)c1nc2[nH]c(N3CCC4(CC3)OCCO4)nc(Nc3ccc(Cl)cc3)c-2n1

>  <system name>
Substance-K receptor (Homo sapiens, UniProt P21452)

>  <class label>
NO

$$$$

State whether 4 µM exceeds Ki recorded for COC1(OC)CCN(c2nc(Nc3ccc(Cl)cc3)c3[nH]c(C(C)C)nc3n2)CC1 . YES

And then CC(C)c1nc2nc(N3CCC(C)(O)CC3)nc(Nc3ccc(Cl)cc3)c2[nH]1 , what is it? YES

And then CC(C)c1nc2nc(N3CCC(O)CC3)nc(Nc3ccc(C(F)(F)F)cc3)c2[nH]1 , what is it? YES

Attribution: ChEMBL document CHEMBL1128090
